target: Estrogen receptor (Homo sapiens); test: Downregulation of ERalpha expression in human MCF7 cells at 10 uM after 6 hrs by Western blot method relative to beta-actin; format: cell-based
Endpoint label: Activity (%)
Report only the number, with the unit % understood.

>  <Structure smiles string>
CCCCCCCCCCCCOc1ccc(C(CCC)(CCC)c2ccc(O)c(C)c2)cc1C

>  <Reading>
96

$$$$

Item `CCCCCCCCCCOc1ccc(C(CCC)(CCC)c2ccc(O)c(C)c2)cc1C` has what recorded Activity?
106

Name the recorded Activity for `CCCCCCOc1ccc(C(CCC)(CCC)c2ccc(O)c(C)c2)cc1C` .
86

Return reported Activity; argument: `CCCC(CCC)(c1ccc(O)c(C)c1)c1ccc(OCCN(C)C)c(C)c1`
100

Form field: reported Activity of `CCCCCCCCCCCCNCCOc1ccc(C(CCC)(CCC)c2ccc(O)c(C)c2)cc1C`
68

* * *

biological target: Estrogen receptor (Homo sapiens) (UniProt P03372); test: Downregulation of ERalpha expression in human MCF7 cells at 3 uM after 6 hrs by Western blot method relative to beta-actin; type: cell-based
Sequence (P03372 whole entry): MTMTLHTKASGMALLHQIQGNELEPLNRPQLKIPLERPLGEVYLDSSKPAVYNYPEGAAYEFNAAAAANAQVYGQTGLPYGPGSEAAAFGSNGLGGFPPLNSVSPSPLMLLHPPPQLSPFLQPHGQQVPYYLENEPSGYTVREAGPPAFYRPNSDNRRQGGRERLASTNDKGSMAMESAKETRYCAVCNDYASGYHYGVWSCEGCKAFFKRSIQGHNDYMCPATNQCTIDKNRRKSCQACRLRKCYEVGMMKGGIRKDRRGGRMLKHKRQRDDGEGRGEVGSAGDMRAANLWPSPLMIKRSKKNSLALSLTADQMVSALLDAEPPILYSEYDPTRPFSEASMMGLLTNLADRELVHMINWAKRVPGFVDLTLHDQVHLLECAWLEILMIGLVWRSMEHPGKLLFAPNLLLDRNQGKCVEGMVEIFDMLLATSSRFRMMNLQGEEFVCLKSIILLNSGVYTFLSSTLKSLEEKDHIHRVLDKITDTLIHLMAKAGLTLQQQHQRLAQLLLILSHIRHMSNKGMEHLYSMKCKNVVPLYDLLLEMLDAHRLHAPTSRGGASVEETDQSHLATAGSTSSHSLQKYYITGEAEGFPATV
Endpoint label: Activity (%)
Response body: numeric value in %, unit text excluded.

Example cases with answers are listed next.
>  <Structure smiles string>
CCCC(CCC)(c1ccc(O)c(C)c1)c1ccc(OCCN(C)C)c(C)c1

>  <Measured target>
Estrogen receptor (Homo sapiens) (UniProt P03372)

>  <Result units>
%

>  <Activity>
115

$$$$
>  <Structure smiles string>
CCCCOc1ccc(C(CCC)(CCC)c2ccc(O)c(C)c2)cc1C

>  <Measured target>
Estrogen receptor (Homo sapiens) (UniProt P03372)

>  <Result units>
%

>  <Activity>
82

$$$$
>  <Structure smiles string>
CCCC(CCC)(c1ccc(O)c(C)c1)c1ccc(OCCN)c(C)c1

>  <Measured target>
Estrogen receptor (Homo sapiens) (UniProt P03372)

>  <Result units>
%

>  <Activity>
154

$$$$
>  <Structure smiles string>
CCCCCCCCCCCCOc1ccc(C(CCC)(CCC)c2ccc(O)c(C)c2)cc1C

>  <Measured target>
Estrogen receptor (Homo sapiens) (UniProt P03372)

>  <Result units>
%

>  <Activity>
111

$$$$
>  <Structure smiles string>
CCCCCCCCNCCOc1ccc(C(CCC)(CCC)c2ccc(O)c(C)c2)cc1C

>  <Measured target>
Estrogen receptor (Homo sapiens) (UniProt P03372)

>  <Result units>
%

>  <Activity>
112

$$$$
>  <Structure smiles string>
CCCCCCCCCCNCCOc1ccc(C(CCC)(CCC)c2ccc(O)c(C)c2)cc1C

>  <Measured target>
Estrogen receptor (Homo sapiens) (UniProt P03372)

>  <Result units>
%

>  <Activity>
57

$$$$
>  <Structure smiles string>
CCCCCCOc1ccc(C(CCC)(CCC)c2ccc(O)c(C)c2)cc1C

>  <Measured target>
Estrogen receptor (Homo sapiens) (UniProt P03372)

>  <Result units>
%

>  <Activity>
95

$$$$
>  <Structure smiles string>
CCCC(CCC)(c1ccc(O)c(C)c1)c1ccc(OCC)c(C)c1

>  <Measured target>
Estrogen receptor (Homo sapiens) (UniProt P03372)

>  <Result units>
%

>  <Activity>
96

$$$$

Now look at this one.
Dear colleague, I am looking for the recorded Activity of the following compound: `CCCCCCCCCCCCCCCCNCCOc1ccc(C(CCC)(CCC)c2ccc(O)c(C)c2)cc1C`
82

Provenance of the data: ChEMBL document CHEMBL4138058
